Every entry's value here was drawn from PubChem BioAssay (NCI).

Consider the following compounds and their measured TGI readings.
# System: IGROV1 ovarian
# ASSAY PROCEDURE: NCI tumour cell line growth inhibition, 48 h
Could you give me the number in µM? Just the number is fine.

Check out these entries, answers already filled in.
COMPOUND: COc1ccccc1N1CCN(CCCOc2ccc(C(=O)/C=C3/C(=O)Nc4ccccc43)cc2)CC1
TGI, µM: 37.6
--
COMPOUND: CCCCCCCCCC[N+](C)(C)C
TGI, µM: 3.2
--
COMPOUND: C=C(C)[C@@H]1CC[C@]2(CN)CC[C@]3(C)[C@H](CC[C@@H]4[C@@]5(C)CCC(N)[C@@](C)(CO)[C@@H]5CC[C@]43C)[C@@H]12 (stereo partly drawn)
TGI, µM: 3.65
--
COMPOUND: CSS(C)(=O)=O
TGI, µM: 45.2

Look up TGI: O=C1CCC(N2C(=O)c3cccc(NCCOCCOCCNC(=O)c4cc5c(o4)C(=O)c4ccccc4C5=O)c3C2=O)C(=O)N1 (stereo not drawn)
4.29

Next compound: `COc1ccc(C(=O)c2cc(C)c(OC)c(C)c2)c(OC)c1N(C(=O)CCl)C(=O)CCl`
3.83

Next compound: `Cc1ccc(-n2c3c(c4c(CN)c(O)ccc42)CCc2ccccc2C3=O)cc1`
22.8

Next compound: `O=C1c2ccccc2-c2c1c1ccc([N+](=O)[O-])cc1c(=O)n2CCCn1ccnc1`
2.71

Next compound: `C[C@@]1(O)CCC[C@H]1n1c(=O)c(C(F)F)cc2cnc(NC3CCN(S(C)(=O)=O)CC3)nc21`
43.7
